- Tested on: wheat (Triticum aestivum)
- Run description: Test A1 postemergence, wheat
- Assay type: in vivo
- Stated conditions: Postemergence, 31 g ai/ha; 0 to 100 scale (0 no effect, 100 complete control); 10 days
- Excerpt: […]
Endpoint name: Plant response rating, Wheat
Number, no unit, nothing else.

Enquiry: Report Plant response rating, Wheat for `Cc1c(NS(=O)(=O)C(F)(F)F)cc(C(=O)N2CCCCC2)c(C)c1C` tested on wheat (Triticum aestivum).
Return: 0

Enquiry: Report Plant response rating, Wheat for Cc1cc(C)c(N(C(=O)OC(C)C)S(=O)(=O)C(F)(F)F)cc1C1=NOC2CCCC12 (centres unmarked) tested on wheat (Triticum aestivum).
Return: 20

Enquiry: Report Plant response rating, Wheat for Cc1cc(C)c(N(COC(=O)C(C)C)S(=O)(=O)C(F)(F)F)cc1C1=NOC2CCCC12 (centres unmarked) tested on wheat (Triticum aestivum).
Return: 10

Enquiry: Report Plant response rating, Wheat for `CCOC(=O)N(c1cc(C(=O)N2CCC(C)CC2)c(C)cc1C)S(=O)(=O)C(F)(F)F` tested on wheat (Triticum aestivum).
Return: 20

Enquiry: Report Plant response rating, Wheat for Cc1c(NS(=O)(=O)C(F)(F)F)cc(C(=O)N2CC(C)OC(C)C2)c(C)c1C (centres unmarked) tested on wheat (Triticum aestivum).
Return: 0

Enquiry: Report Plant response rating, Wheat for `CCOC(=O)N(c1cc(C(=O)N2CCC(c3ccccc3)CC2)c(C)cc1C)S(=O)(=O)C(F)(F)F` tested on wheat (Triticum aestivum).
Return: 0

Enquiry: Report Plant response rating, Wheat for CCOC1CC(c2cc(N(COC(=O)C(C)(C)C)S(=O)(=O)C(F)(F)F)c(C)cc2C)=NO1 (centres unmarked) tested on wheat (Triticum aestivum).
Return: 0

Enquiry: Report Plant response rating, Wheat for `Cc1c(NS(=O)(=O)C(F)(F)F)cc(C(=O)N2CCC(F)CC2)c(C)c1C` tested on wheat (Triticum aestivum).
Return: 0
